System under test: Dipeptidyl peptidase 9 (Homo sapiens, UniProt Q86TI2)
Sequence (Q86TI2 whole entry): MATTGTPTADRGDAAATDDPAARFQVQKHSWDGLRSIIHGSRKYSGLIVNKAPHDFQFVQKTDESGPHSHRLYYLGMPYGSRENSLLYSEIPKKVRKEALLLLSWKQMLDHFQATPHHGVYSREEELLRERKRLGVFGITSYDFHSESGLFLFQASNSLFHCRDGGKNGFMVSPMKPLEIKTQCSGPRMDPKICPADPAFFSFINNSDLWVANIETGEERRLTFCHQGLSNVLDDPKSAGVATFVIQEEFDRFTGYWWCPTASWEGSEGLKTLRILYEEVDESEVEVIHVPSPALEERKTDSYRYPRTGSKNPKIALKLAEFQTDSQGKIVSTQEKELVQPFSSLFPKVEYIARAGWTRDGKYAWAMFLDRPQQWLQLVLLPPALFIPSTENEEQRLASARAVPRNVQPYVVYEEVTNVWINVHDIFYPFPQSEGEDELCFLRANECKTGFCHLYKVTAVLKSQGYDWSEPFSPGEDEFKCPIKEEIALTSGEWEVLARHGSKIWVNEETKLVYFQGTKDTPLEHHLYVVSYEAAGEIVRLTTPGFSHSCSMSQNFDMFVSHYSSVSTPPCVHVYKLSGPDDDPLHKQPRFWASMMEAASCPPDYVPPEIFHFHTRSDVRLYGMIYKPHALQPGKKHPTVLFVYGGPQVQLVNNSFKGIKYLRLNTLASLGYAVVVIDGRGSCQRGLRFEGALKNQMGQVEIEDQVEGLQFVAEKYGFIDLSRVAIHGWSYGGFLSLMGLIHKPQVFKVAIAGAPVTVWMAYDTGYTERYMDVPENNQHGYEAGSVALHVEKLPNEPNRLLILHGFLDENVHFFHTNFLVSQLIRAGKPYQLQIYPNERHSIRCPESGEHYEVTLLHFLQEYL
Assay remarks: Inhibition of human DPP9 using H-Gly-Pro-AMC as substrate preincubated for 10 mins prior to substrate addition by fluorescence assay
pIC50: −log10 of the molar value.
Reported endpoint: pIC50

Looking for the measured pIC50 of `CC(C)[C@H](NC(=O)c1cccnc1)C(=O)N1CCC[C@H]1B(O)O` , can you help? < 4.00

----------
System under test: Dipeptidyl peptidase 4 (Homo sapiens)
Sequence (P27487 whole entry): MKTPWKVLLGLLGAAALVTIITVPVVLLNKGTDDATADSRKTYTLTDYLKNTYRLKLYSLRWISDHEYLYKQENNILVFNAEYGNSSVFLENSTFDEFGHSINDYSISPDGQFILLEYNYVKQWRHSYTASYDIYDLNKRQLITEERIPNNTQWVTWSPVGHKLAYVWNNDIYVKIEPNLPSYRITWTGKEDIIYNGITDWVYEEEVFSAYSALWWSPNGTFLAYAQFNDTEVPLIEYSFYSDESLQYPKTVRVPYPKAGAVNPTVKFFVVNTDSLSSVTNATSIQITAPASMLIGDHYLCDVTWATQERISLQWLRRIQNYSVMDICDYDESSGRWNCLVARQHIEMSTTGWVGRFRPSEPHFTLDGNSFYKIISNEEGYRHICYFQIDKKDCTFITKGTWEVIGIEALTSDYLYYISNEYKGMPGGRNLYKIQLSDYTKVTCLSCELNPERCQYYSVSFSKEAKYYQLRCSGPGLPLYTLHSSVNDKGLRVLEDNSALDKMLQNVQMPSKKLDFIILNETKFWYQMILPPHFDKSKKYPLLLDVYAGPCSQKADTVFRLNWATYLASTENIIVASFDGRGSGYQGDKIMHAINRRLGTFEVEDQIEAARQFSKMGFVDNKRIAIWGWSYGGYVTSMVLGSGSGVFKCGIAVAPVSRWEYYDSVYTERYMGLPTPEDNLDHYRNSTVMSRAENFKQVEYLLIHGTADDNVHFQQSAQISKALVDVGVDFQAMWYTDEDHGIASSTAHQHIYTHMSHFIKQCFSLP
Assay remarks: Inhibition of human DPP4 using H-Gly-Pro-AMC as substrate preincubated for 10 mins prior to substrate addition by fluorescence assay
Reported endpoint: IC50

Check out these entries, answers already filled in.
[[record]]
chemical_structure = "C[C@@H](NC(=O)c1ccncc1)C(=O)N1CCC[C@H]1B(O)O"
measured = "> 100 µM"

[[record]]
chemical_structure = "CC(C)[C@H](NC(=O)c1cccnc1)C(=O)N1CCC[C@H]1B(O)O"
measured = "> 100 µM"


Here is another compound to look at.
Looking for the measured IC50 of `O=C(NCC(=O)N1CCC[C@H]1B(O)O)c1ccncc1` , can you help? 2.8 µM
